Cited source: paper PMC7067828

STUDY_TARGET: Strep-FAM111A (human, UniProt Q96PZ2 1-611)
Sequence (Q96PZ2 whole entry): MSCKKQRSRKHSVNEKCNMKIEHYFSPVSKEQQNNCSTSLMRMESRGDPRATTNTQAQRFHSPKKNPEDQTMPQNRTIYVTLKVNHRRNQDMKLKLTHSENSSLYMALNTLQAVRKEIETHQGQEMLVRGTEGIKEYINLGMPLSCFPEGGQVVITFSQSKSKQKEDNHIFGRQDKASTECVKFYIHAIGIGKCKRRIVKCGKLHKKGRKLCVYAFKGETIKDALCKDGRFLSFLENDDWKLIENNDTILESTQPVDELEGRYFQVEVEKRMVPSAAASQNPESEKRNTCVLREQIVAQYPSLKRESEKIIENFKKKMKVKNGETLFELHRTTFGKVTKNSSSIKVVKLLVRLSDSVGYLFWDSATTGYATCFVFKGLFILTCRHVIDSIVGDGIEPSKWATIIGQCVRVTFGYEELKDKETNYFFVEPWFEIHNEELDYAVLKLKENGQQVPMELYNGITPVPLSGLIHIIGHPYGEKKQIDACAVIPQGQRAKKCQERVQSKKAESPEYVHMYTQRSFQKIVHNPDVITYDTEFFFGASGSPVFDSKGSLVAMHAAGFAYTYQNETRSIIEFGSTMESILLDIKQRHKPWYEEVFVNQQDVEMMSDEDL
PROTOCOL_SUMMARY: fluorescence polarization; EMSA: 25 mM Tris-HCl pH 7.5, 5 mM MgCl2, 10% glycerol, 20 ng/ul BSA, 1 mM DTT, 0.7 pmol DNA in 10 ul, on ice 1 h; FP: 10 mM HEPES-NaOH pH 7.5, 150 mM NaCl, 10 nM DNA
CONDITION_SET: protein: recombinant; tags: N-terminal tandem Strep; label: 5' 6-FAM; single strand
TEST_READOUT: Kd

Input: Find the recorded Kd belonging to CGACGATGCTCCGGTACTCCAGTGTAGGCAT (ssDNA) [6-FAM-O1676 (31 nt)] and report it.
Output: ~60 nM
